FYI, the data here is from ChEMBL document CHEMBL1781941.

// values below are reported IC50
System: MDA-MB-231
Experiment: Antitumor activity against human MDA-MB-231 cells
Type: functional, cell-based
Metric name: IC50

- Compound: "Cc1[nH]c(/C=C2\\C(=O)N(CCCN(C)C)c3ccc(Cl)cc32)c(C)c1C(=O)N1CCCCC1"
  Metric name: "IC50"
  Experimental value: "5.68 µM"
- Compound: "CCN(CC)C(=O)c1c(C)[nH]c(/C=C2\\C(=O)N(CCCN(C)C)c3ccc(F)cc32)c1C"
  Metric name: "IC50"
  Experimental value: "13.7 µM"
- Compound: "Cc1[nH]c(/C=C2\\C(=O)N(CCCN(C)C)c3ccc(F)cc32)c(C)c1C(=O)N(C)C"
  Metric name: "IC50"
  Experimental value: "19.2 µM"
- Compound: "Cc1[nH]c(/C=C2\\C(=O)N(CCCN(C)C)c3ccc(Cl)cc32)c(C)c1C(=O)N(C)C"
  Metric name: "IC50"
  Experimental value: "12 µM"
- Compound: "CCN(CC)CCNC(=O)c1c(C)[nH]c(/C=C2\\C(=O)N(CCCN(C)C)c3ccc(F)cc32)c1C"
  Metric name: "IC50"
  Experimental value: "2.86 µM"
- Compound: "CCN(CC)CCNC(=O)c1c(C)[nH]c(/C=C2\\C(=O)Nc3ccc(F)cc32)c1C [SUNITINIB]"
  Metric name: "IC50"
  Experimental value: "4.51 µM"
- Compound: "Cc1[nH]c(/C=C2\\C(=O)N(CCCN(C)C)c3ccc(F)cc32)c(C)c1C(=O)N1CCCCC1"
  Metric name: "IC50"
  Experimental value: "11.5 µM"
- Compound: "Cc1[nH]c(/C=C2\\C(=O)N(CCCN(C)C)c3ccc(Cl)cc32)c(C)c1C(=O)NCCN(C)C"
  Metric name: "IC50"
  Experimental value: "2.44 µM"
- Compound: "CCN(CC)C(=O)c1c(C)[nH]c(/C=C2\\C(=O)N(CCCN(C)C)c3ccc(Cl)cc32)c1C"
  Metric name: "IC50"
  Experimental value: "6.82 µM"
- Compound: "CCN1CCN(C(=O)c2c(C)[nH]c(/C=C3\\C(=O)N(CCCN(C)C)c4ccc(F)cc43)c2C)CC1"
  Metric name: "IC50"
  Experimental value: "8.09 µM"
- Compound: "Cc1[nH]c(/C=C2\\C(=O)N(CCCN(C)C)c3ccc(F)cc32)c(C)c1C(=O)N1CCCC1"
  Metric name: "IC50"
  Experimental value: "13.3 µM"
- Compound: "Cc1[nH]c(/C=C2\\C(=O)N(CCCN(C)C)c3ccc(Cl)cc32)c(C)c1C(=O)N1CCCC1"
  Metric name: "IC50"
  Experimental value: "11.5 µM"
- Compound: "Cc1[nH]c(/C=C2\\C(=O)N(CCCN(C)C)c3ccc(F)cc32)c(C)c1C(=O)N1CCN(C)CC1"
  Metric name: "IC50"
  Experimental value: "9 µM"
- Compound: "CCN1CCN(C(=O)c2c(C)[nH]c(/C=C3\\C(=O)N(CCCN(C)C)c4ccc(Cl)cc43)c2C)CC1"
  Metric name: "IC50"
  Experimental value: "3.46 µM"
- Compound: "Cc1[nH]c(/C=C2\\C(=O)N(CCCN(C)C)c3ccc(Cl)cc32)c(C)c1C(=O)N1CCN(C)CC1"
  Metric name: "IC50"
  Experimental value: "5.06 µM"
- Compound: "Cc1[nH]c(/C=C2\\C(=O)N(CCCN(C)C)c3ccc(F)cc32)c(C)c1C(=O)NCCN(C)C"
  Metric name: "IC50"
  Experimental value: "2.14 µM"
- Compound: "CCN(CC)CCNC(=O)c1c(C)[nH]c(/C=C2\\C(=O)N(CCCN(C)C)c3ccc(Cl)cc32)c1C.Cl.Cl.Cl"
  Metric name: "IC50"
  Experimental value: "2.29 µM"
